experimental.details: qHTS Assay for Lipid Storage Modulators in Drosophila S3 Cells;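 also: cells counted by Cell Tracker Red CMTPX staining in the red channel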
applied.conditions: BODIPY lipid droplet fluorescence, 18-24 h, cells fed with added oleic acid; measured here: cell count max response
Among all 320,000 compounds or so, about 2,100 (0.66%) were called active. Not shown: some 53% with an inconclusive outcome. This is one part of a sample in which actives are shown more often than they occur.
Consider the following compounds and their measured cell number change readings.
reported.property: cell number change (%)

compound	reported.property	unit.spec	recorded.number
CN(CC1CCCO1)S(=O)(=O)c1ccc(C(=O)Nc2ccc([N+](=O)[O-])cc2)cc1 (centres undefined)	cell number change	%	-17.5
Cc1ccc(N2CCN(S(=O)(=O)N3CCCCC3)CC2)c(C)c1	cell number change	%	18.1
O=C(NN1CCOCC1)c1cccc(Cl)c1	cell number change	%	14.2
NC(=NCCc1ccccc1)NS(=O)(=O)c1cccs1	cell number change	%	-0.301
COC(=O)CCC(=O)NN1C(=O)c2ccccc2C1=O	cell number change	%	9.79
CCc1cc[n+](C2=C([O-])c3ccccc3C(=O)/C2=N\S(=O)(=O)c2cccs2)cc1	cell number change	%	2.59
Cc1ccc(NC2CCCN(C(=O)c3cnc4ccccn4c3=O)C2)cc1C (centres undefined)	cell number change	%	10.1
Cc1cc(C)n2nc(Sc3ncccc3[N+](=O)[O-])nc2n1	cell number change	%	-8.83
Cc1cnc(-c2nnc(N(C)C(=O)C3CCOC3)s2)cn1 (centres undefined)	cell number change	%	-7.84
Cc1cccc(C(=O)NCc2nnc(SCC(=O)Nc3nncs3)n2C)c1	cell number change	%	-2.14
CC1Cc2cc(/C(O)=C3/C(=O)C(=O)N(CC4CCCO4)C3c3ccco3)ccc2O1 (centres undefined)	cell number change	%	9.06
CN(C)C(=O)c1cc(C(=O)c2c(F)cccc2F)c[nH]1	cell number change	%	-8.76
O=C1CCCN1c1ccc(C(=O)N(Cc2nnc(-c3ccccc3Cl)o2)C2CC2)cc1	cell number change	%	-25.6
CCCCC(CC)CNC(=O)C(Cc1ccccc1)NS(=O)(=O)c1ccc2c(c1)CCC(=O)N2 (centres undefined)	cell number change	%	9.41
O=C(COc1cccc(C(F)(F)F)c1)Nc1cccnc1	cell number change	%	28.7
O=C1/C(=N\S(=O)(=O)c2cccs2)C([n+]2cccc(Cc3ccccc3)c2)=C([O-])c2ccccc21	cell number change	%	-9.11
O=C1C(=O)c2ccccc2C([O-])=C1[n+]1ccccc1	cell number change	%	19.4
O=C(c1ccccc1)N(Cc1ccc(F)cc1)Cc1nc2ccccc2c(=O)[nH]1	cell number change	%	-10.1
COc1ccc(C)cc1NC(=O)CCCN1C(=S)NC(C)(C)CC1C (centres undefined)	cell number change	%	-1.97
Oc1ccc(/C=N/NC2=NCCCCC2)cc1	cell number change	%	1.27
Cc1cc[n+](-c2nc3ccccc3nc2[N-]S(=O)(=O)c2cccs2)cc1C	cell number change	%	-0.563
O=S(=O)(c1ccccc1)N1CCN(S(=O)(=O)c2ccc(F)cc2)CC1	cell number change	%	-2.92
CN(CC1CCCO1)S(=O)(=O)c1ccc(C(=O)Nc2ccc(F)cc2)cc1 (centres undefined)	cell number change	%	-21.7
C=CCn1c(O)c(C=Nc2ccccc2)sc1=S	cell number change	%	8.83
Cc1ccc(/C=C2\S/C(=N/S(=O)(=O)c3cccs3)NC2=O)cc1	cell number change	%	3.91
CC1CCN(CCCCOc2ccccc2F)CC1	cell number change	%	12.3
O=C(c1ccccc1C(=O)N1CCN(c2ccc(F)cc2)CC1)N1CCN(c2ccc(F)cc2)CC1	cell number change	%	-27
CSc1nnc(-c2ccccc2)n1N	cell number change	%	9.66
Cc1cc[n+](C2=C([O-])c3ccccc3C(=O)/C2=N\S(=O)(=O)c2cccs2)cc1C	cell number change	%	-25.5
O=C(O)c1ccccc1C(=O)N1CCN(c2ccccc2)CC1	cell number change	%	0.845
O=C(/C=C/N1CCN(Cc2ccccc2)CC1)C(F)(F)F	cell number change	%	4.65
Cc1ccnc(Sc2ncccc2[N+](=O)[O-])n1	cell number change	%	-11.7
N#Cc1ccc(OCC(=O)Nc2nc(-c3cccnc3)cs2)cc1	cell number change	%	-1.13
COc1cc(C2/C(=C(\O)c3ccc4c(c3)CC(C)O4)C(=O)C(=O)N2CC2CCCO2)cc(OC)c1OC (centres undefined)	cell number change	%	-16
O=C(NCC1CCCO1)c1ccc(NC(=O)c2ccc([N+](=O)[O-])cc2)cc1 (centres undefined)	cell number change	%	13.2
CC(C)CN(C(=O)C1CCCC1)C1CCS(=O)(=O)C1 (centres undefined)	cell number change	%	-27.9
O=C(Nc1ccc(Cl)cc1)Nc1nnc(Cc2ccc([N+](=O)[O-])cc2)s1	cell number change	%	3.06
O=C1Nc2cc(C(=O)NCCCN3CCCC3)ccc2S/C1=C\c1ccccc1	cell number change	%	-4.94
COC(=O)c1ccc(CON2C(=O)c3ccccc3C2=O)cc1	cell number change	%	-3.96
O=C(c1ccccc1Oc1ccccc1)N1CCN(c2ccc(F)cc2)CC1	cell number change	%	14.1
O=S(=O)(Nc1ccc(-c2nc3ccccc3o2)cc1)c1ccccc1	cell number change	%	-16.6
Oc1ccccc1-c1nc(NCc2ccccc2)c2ccccc2n1	cell number change	%	2.04
COc1ccc(CC(=O)OCC(=O)Nc2ccc3c(c2)OCCO3)cc1OC	cell number change	%	3.44
CCC1CCCCN1CCCNC(=O)c1ccc2c(c1)NC(=O)CS2 (centres undefined)	cell number change	%	20.8

// data source = PubChem BioAssay AID2685
